# System: MS2 coat protein
# experimental-details: apparent KD of MS2 coat protein; higher = weaker reporter binding
# particulars: Eterna round: R107; input ligand: theophylline 20 uM
result-type: apparent KD of MS2 coat protein (nM)
Give bare numbers, in nM.

AAGCUGGGUGUAAAAUAAAUAAUCACUGAUACCAGACUAUGAGAUGUCCCUUGGCAGCAGAAACAUGAGGAUCACCCAUGUAAUA [JR_Nu_ExcTheophyA_Sub027]: 25.5
UAUGCACAUGAGGAUCACCCAUGUAUGGAAGGAGCGGUGAAUAAACCAGGUAGGUCGCCAUGGUGAGGGUCAUCUAUGUAAUCGU [Exclusion - Arginine A (Freestyle 5)]: 78.4
GGAUAGGACACGGCCGCCACUAGCUAGGAUACUAGCAACAUUUCCUCACUUGAGGAACACCCAAGUAGGACCGGGUGUCCUAUCG: 724
UCGCUCUGGGUGAAAUCCGGAGAUGUGGAAGGAGCGCUCGAAAGAGCAGGUAGGUCGCCAACGGACAUGAGGAUCACCCAUGUAC [Same State - Arginine A (Freestyle 20)]: 50
AGAAUAUAGUCGGCCGCCACUCUACAAACAUGAGGAUCACCCAUGUUCACAUAGUGGAAACACAUGAGGACCGGGACAUAGGCAU [#17 Same State - Tryptophan B]: 21.4
GGGUGGUAGGCGGCCGCCACUGAUUUUUAUUUAUAGAUGACAUGAGGAUCACCCAUGUUGAUAUGCAGGACCGGGCCUGUUGUUG [aaaP]: 19.7
AUUAUAGUUUAUAAGGAAAUUGAAACAGAAGGAGCGUGAGUAAUCACAGGUAGGUCGCUGGUAGUACAUGAGGAUCACCCAUGUU [JR_Nu_SSArginiA_Sub019]: 32.2
CUCGGGUUAUCAGAUACCAGACUAAAAUUUACAUGAGGAUCACCCAUGUAAUGGGUGAUAGUCCCUUGGCAGCUGUUAUGUUUAA [JR_ExcTheophyB_Sub001]: 85.4
AUAACAUGAGGAUCACCCAUGUAAGCAGAUACCAGCUAGGAAACUAGCCCUUGGCAGCUGCAAUCAUGGGUGUGGUAUCUGCUAA [(M1)-(M2)-(T1)-(T2)-(M)'-(T)'_Design5]: 39.7
UACUUGCUGACGGCCGCCACUAGAACAUGAGGAUCACCCAUGUACCUGGUCCUUCAUGGGUGGACUAGGACCGGGUCAGCAAGAU [(Trp1)-(Ms2)-(T)'-(M)'-(Trp2)_Design4]: 418

For each listed entry, give its apparent KD of MS2 coat protein.
1. AAACGUUGCUGCGAUACCAGACAUGAGGAUCACCCAUGUACCAAGGUAAAGAAAUAACGUGUCCCUUGGCAGCGCAGCAACGAAA [MAT - Exclusion Theophlline B - Mod of Eli - D12]
2. CCCAGUCAUAACAAAGGAAAUAUACUCGAAGGAGCGUCAUAGUAGGCAGGUAGGUCGCGAGACAUGAGGAUCACCCAUGUAGAGA [swwvmullin]

16.1
72

###

# Test system: MS2 coat protein
# experimental-details: apparent KD of MS2 coat protein; designed switch direction (-1 OFF switch, 1 ON switch): 1; higher = weaker reporter binding
# particulars: Eterna round: R98; input ligand: none
Threshold check on apparent KD of MS2 coat protein: at or above 30 nM gives met, strictly below gives not met.

Decide: apparent KD of MS2 coat protein of AUUACAUGAGGAUCACCCAUGUACAGAACGUUUCAUUAAAGUGAGGAUAUACGAAAUUUAAAAGCGUAGAAGGCACUGGGUACA [SameState #43 NG3] >= 30 nM?
not met

Decide: apparent KD of MS2 coat protein of AAAACAUGAGGAUCACCCAUGUAUUGAACGGUUAAUAAAAGUGAGGAUAUACAAAAUUUUAUAUAGUAGAAGGCACUGGGUACA [JR_SSNG3_Sub009] >= 30 nM?
not met

Decide: apparent KD of MS2 coat protein of GCAUACAUUCGAGGAUAUCGGUGAACAAAUUAGCGAGAAGGCGAUAUAAUUUUUAAACUUAUUGACAUGAGGAUCACCCAUGUA [JR_SSNG1_Sub011] >= 30 nM?
not met

Decide: apparent KD of MS2 coat protein of GGACAUGUCGUUUACAUGAGGAUCACCCAUGUCGAUGGACAUGAGGAUAUGGAUCCGAAUCGGAUCCAGAAGGCAUGCAUGUCC [SameState #7 NG3] >= 30 nM?
met

Decide: apparent KD of MS2 coat protein of GGAGACCUCACAGGAUAUGCUGGACUUUGUCCAGCAGAAGGGUGAAAACAUGAGGAUCACCCAUGUAUGGUCUCCAAAUUUAAU [Denovo 57] >= 30 nM?
met

Decide: apparent KD of MS2 coat protein of GUAGCAUACCGAGGAUAUUCUCCGGAAAACCGGACAUGAGGAUCACCCAUGUGGCGAAAGCCUUGGGAGAAGGCGGAAUGCUAC [Xeinanis 75 29] >= 30 nM?
met
